# runDescription: Single dose pharmacokinetics (SAD), Example B14
# Type: in vivo, human
# recordedConditions: human, plasma, oral; single dose 480 mg; geometric mean; read-out: AUC0-24, ng × h/mL
quantityKind: AUC(0-t)

INSERT INTO assay_data (compound, quantitykind, observedvalue) VALUES
  ('COCCN(CCCCc1ccc2c(n1)NCCC2)CC[C@H](Nc1ncnc2ccccc12)C(=O)O [Compound 5]', 'AUC(0-t)', '57300 ng·h/mL');

---

# runDescription: Single dose pharmacokinetics (SAD), Example B14
# Type: in vivo, human
# recordedConditions: human, oral; single dose 240 mg, plasma total drug; geometric mean
quantityKind: half-life

INSERT INTO assay_data (givensmiles, observedvalue) VALUES
  ('COCCN(CCCCc1ccc2c(n1)NCCC2)CC[C@H](Nc1ncnc2ccccc12)C(=O)O', '46 h');
